- Target Or Test System: KRas G12C mutant (Homo sapiens, UniProt P01116, G12C)
- Construct: made in house
- Test Summary: Ras GTP binding domain inhibition assay (labeled-GTP competition, cell-free)
- Condition Details: with SOS, read-out: KRas G12C mutant + SOS: % inh.
Observed Property: inhibition at 20 µM

Examples from the recorded data:
>>> endpoint_result("O=C(c1nc(O)c2scc(-c3ccccn3)c2n1)N1CCCC1")
"1 to 25%"
>>> endpoint_result("CO[C@H]1CC[C@@H](Nc2nc(-c3ccccn3)nc3sc(-c4ccn(C(C)C)n4)c(C)c23)C1 (racemic)")
"51 to 75%"
>>> endpoint_result("COc1cccn2c(-c3nc(O)c4scc(-c5ccccn5)c4n3)ncc12")
"1 to 25%"
>>> endpoint_result("COCC1CN(c2nc(-c3nccn3C)nc3sc(-c4ccn(C(C)C)n4)c(C)c23)CCO1 (racemic)")
"76 to 100%"
>>> endpoint_result("Cn1ccc(-c2nc(O)c3scc(-c4ccccn4)c3n2)n1")
"1 to 25%"
>>> endpoint_result("CC(C)OCCn1ccnc1-c1nc(O)c2scc(-c3ccccn3)c2n1")
"51 to 75%"

Any idea what its inhibition at 20 µM is? The compound is `Cn1ccnc1-c1nc(O)c2scc(-c3ncccc3F)c2n1` 76 to 100%

Any idea what its inhibition at 20 µM is? The compound is `CO[C@H]1C[C@H](CNc2nc(-c3nccn3C)nc3sc(-c4ccn(C(C)C)n4)c(C)c23)C1` 51 to 75%

Any idea what its inhibition at 20 µM is? The compound is `Cc1cnc(-c2nc(O)c3scc(-c4ccccn4)c3n2)s1` 51 to 75%

Any idea what its inhibition at 20 µM is? The compound is COC1CCCN(c2nc(-c3nccn3C)nc3sc(-c4ccn(C(C)C)n4)c(C)c23)C1 (racemic) 76 to 100%

Any idea what its inhibition at 20 µM is? The compound is COCCn1ccnc1-c1nc(N[C@@H]2CC[C@H](OC)C2)c2c(-c3ccccc3)c(-c3ccn(C)n3)sc2n1 (racemic) 76 to 100%

Any idea what its inhibition at 20 µM is? The compound is CO[C@H]1CC[C@@H](Nc2nc(-c3nccn3C)nc3sc(-c4cn(C)cn4)c(-c4ccccc4)c23)C1 (racemic) 76 to 100%

Any idea what its inhibition at 20 µM is? The compound is `CO[C@H]1CC[C@H](Nc2nc(-c3nccn3C)nc3sc(-c4ccn(C(C)C)n4)c(C)c23)CC1` 76 to 100%

----------
- Target Or Test System: KRas G12D mutant (Homo sapiens, UniProt P01116, G12D)
- Construct: made in house
- Test Summary: Ras GTP binding domain inhibition assay (labeled-GTP competition, cell-free)
- Condition Details: with SOS, read-out: KRas G12D mutant + SOS: % inh.
Observed Property: inhibition at 20 µM

Examples from the recorded data:
>>> endpoint_result("COc1ccc2cnc(-c3nc(O)c4scc(-c5ccccn5)c4n3)n2c1")
"51 to 75%"
>>> endpoint_result("Cn1nccc1-c1nc(O)c2scc(-c3ccccn3)c2n1")
"1 to 25%"
>>> endpoint_result("CO[C@H]1CC[C@@H](Nc2nc(-c3nccn3C)nc3sccc23)C1 (racemic)")
"51 to 75%"
>>> endpoint_result("COCCCNc1nc(-c2nccn2C)nc2sc(-c3ccn(C(C)C)n3)c(C)c12")
"76 to 100%"

Any idea what its inhibition at 20 µM is? The compound is CO[C@H]1CC[C@@H](Nc2nc(C(=O)N3CCCC3)nc3sccc23)C1 (racemic) 0%

Any idea what its inhibition at 20 µM is? The compound is `NC(=O)c1nc(O)c2scc(-c3ccccn3)c2n1` 26 to 50%

Any idea what its inhibition at 20 µM is? The compound is CO[C@H]1CC[C@@H](Nc2nc(C(=O)NC(C)C)nc3sccc23)C1 (racemic) 0%

Any idea what its inhibition at 20 µM is? The compound is Cc1c(-c2ccn(C(C)C)n2)sc2nc(-c3nccn3C)nc(NCCC3CCC(=O)N3)c12 (racemic) 76 to 100%

----------
- Target Or Test System: KRas G12D mutant (Homo sapiens, UniProt P01116, G12D)
- Construct: made in house
- Test Summary: Ras GTP binding domain inhibition assay (labeled-GTP competition, cell-free)
- Condition Details: with SOS, read-out: KRas G12D mutant + SOS: % inh.
Known inhibition at 20 µM of a selection of molecules

Examples from the recorded data:
>>> endpoint_result("COCC1CCN(c2nc(-c3nccn3C)nc3sc(-c4ccn(C(C)C)n4)c(-c4ccccc4)c23)C1 (racemic)")
"26 to 50%"
>>> endpoint_result("COCCNc1nc(-c2nccn2C)nc2sc(-c3ccn(C(C)C)n3)c(C)c12")
"76 to 100%"
>>> endpoint_result("COCCNC(=O)c1nc(O)c2scc(-c3ccccn3)c2n1")
"26 to 50%"
>>> endpoint_result("COc1ccn2c(-c3nc(O)c4scc(-c5ccccn5)c4n3)ncc2c1")
"26 to 50%"
>>> endpoint_result("CO[C@@H]1CC[C@H](Nc2nc(-c3nccn3C)nc3sc(-c4ccn(C(C)C)n4)c(-c4ccccc4)c23)C1")
"51 to 75%"
>>> endpoint_result("Oc1nc(-c2cccnc2)nc2c(-c3ccccn3)csc12")
"0%"

Any idea what its inhibition at 20 µM is? The molecule is `Cc1c(-c2ccn(C(C)C)n2)sc2nc(-c3nccn3C)nc(NCCc3ncc[nH]3)c12` 26 to 50%

Any idea what its inhibition at 20 µM is? The molecule is `Oc1nc(-c2nccn2CCOCc2ccccc2)nc2c(-c3ccccn3)csc12` 51 to 75%

Any idea what its inhibition at 20 µM is? The molecule is CO[C@@H]1CC[C@@H](Nc2nc(-c3nccn3C)nc3sc(-c4ccn(C(C)C)n4)c(C)c23)C1 (racemic) 76 to 100%

Any idea what its inhibition at 20 µM is? The molecule is CO[C@H]1CC[C@@H](Nc2nc(C(N)=O)nc3sc(-c4ccn(C(C)C)n4)cc23)C1 (racemic) 0%

Any idea what its inhibition at 20 µM is? The molecule is `Oc1nc(-c2ccc3[nH]ncc3n2)nc2c(-c3ccccn3)csc12` 1 to 25%

Any idea what its inhibition at 20 µM is? The molecule is `Cc1c(-c2ccn(C(C)C)n2)sc2nc(-c3nccn3C)nc(NC[C@H]3CCC(=O)N3)c12` 51 to 75%

Any idea what its inhibition at 20 µM is? The molecule is `COCCn1ccnc1-c1nc(O)c2scc(-c3ccncc3)c2n1` 76 to 100%

Any idea what its inhibition at 20 µM is? The molecule is `Cn1ccnc1-c1nc(O)c2scc(-c3ncccc3F)c2n1` 51 to 75%

Any idea what its inhibition at 20 µM is? The molecule is COCCn1ccnc1-c1nc(N[C@@H]2CC[C@H](OC)C2)c2ccsc2n1 (racemic) 76 to 100%

Any idea what its inhibition at 20 µM is? The molecule is `Cc1c(-c2ccn(C(C)C)n2)sc2nc(-c3nccn3C)nc(NCCc3cn(C)cn3)c12` 51 to 75%

Any idea what its inhibition at 20 µM is? The molecule is `COCCn1ccnc1-c1nc(N[C@H]2C[C@@H](OC)C2)c2ccsc2n1` 76 to 100%

----------
- Target Or Test System: KRas Q61H mutant (Homo sapiens, UniProt P01116, Q61H)
- Construct: made in house
- Test Summary: Ras GTP binding domain inhibition assay (labeled-GTP competition, cell-free)
- Condition Details: at 20 μM, without SOS; read-out: KRas Q61H mutant: % inh.
Observed Property: inhibition at 20 µM

Examples from the recorded data:
>>> endpoint_result("Cc1c(-c2ccn(C(C)C)n2)sc2nc(-c3nccn3C)nc(NCCC3CCC(=O)N3)c12 (racemic)")
"51 to 75%"
>>> endpoint_result("COCCNC(=O)c1nc(O)c2scc(-c3ccccn3)c2n1")
"26 to 50%"
>>> endpoint_result("COc1nc(-c2nccn2C)nc2c(-c3ncccc3F)csc12")
"76 to 100%"

Any idea what its inhibition at 20 µM is? The compound is `CO[C@@H]1CC[C@H](Nc2nc(-c3nccn3C)nc3sc(-c4ccn(C(C)C)n4)c(C)c23)C1` 26 to 50%

----------
- Target Or Test System: K-Ras (G12D) (Homo sapiens, UniProt P01116, G12D)
- Test Summary: MicroScale Thermophoresis (MST) GTP affinity
- Condition Details: read-out: MST GTP affinity for binding domain
Observed Property: Kd (nM)
Form entry: value (nM) — number only.

Any idea what its Kd is? The molecule is `Nc1nc2c(ncn2[C@@H]2O[C@H](COP(=O)(O)OP(=O)(O)OP(=O)(O)O)[C@@H](O)[C@H]2O)c(=O)[nH]1` 244
